# Tested System: T1, mouse IL-2Rγ (mouse) (UniProt P34902)
# T1 sequence (looked up): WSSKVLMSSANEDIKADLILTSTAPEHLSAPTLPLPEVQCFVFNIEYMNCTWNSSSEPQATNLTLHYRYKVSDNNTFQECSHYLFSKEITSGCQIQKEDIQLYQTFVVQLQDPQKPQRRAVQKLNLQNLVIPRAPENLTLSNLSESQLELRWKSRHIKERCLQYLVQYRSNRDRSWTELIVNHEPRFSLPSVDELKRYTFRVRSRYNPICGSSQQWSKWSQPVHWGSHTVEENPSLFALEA
# Assay Name: PE binding ELISA, periplasmic extract on coated protein
In this section we review reported OD (PE binding ELISA) values for a set of binders.
Reported Metric: OD (PE binding ELISA) (OD450 nm)

[[record]]
binder = "FJ1427_P035MP04H11 (VHH) VHH: QVQLVESGGGWVQVGESPRLSCAPSGRTFVSGIMGWFRQTPGKEREFVARIILNNNSTRYTDSVKGRFTISRDSAKNTMYLQMNTLRPEDTAVYYCAARDRYGSGNSLSPSAYDYWGQGTQVTVSS"
reported_metric = "OD (PE binding ELISA)"
value_unit = "OD450 nm"
observed = 0.049

[[record]]
binder = "30-MP04C03 (VHH) VHH: EVQLVESGGGWVQDGGSLRLSCALSGRTFVRGIMGWFRQAPGKEREFVARIIWHINSTRYADSVKGRFTISRDSAKNTMYLQMDSLRPEDTAVYYCAARDRYGSGNSLSPSAYDYWGQGTQVTVSS"
reported_metric = "OD (PE binding ELISA)"
value_unit = "OD450 nm"
observed = 0.048

[[record]]
binder = "FJ1427_P035MP04D09 (VHH) VHH: QVQLVESGGGWVQVGESLRLSCAPSGRTFVRGIMGWFRQAPGKEREFVARIILNSNSTRYIDSVKGRFTISRDSAKNTMYLQMNSLRPEDTAVYYCAARDRYGSGNSLSPSAYDYWGQGTQVTVSS"
reported_metric = "OD (PE binding ELISA)"
value_unit = "OD450 nm"
observed = 0.048

[[record]]
binder = "FJ1427_P035MP04F11 (VHH) VHH: QVQLVESGGGWVQVGESLRLSCAPSGRTFVSGIMGWFRQTPGKEREFVARIILNNNSTRYTDSVKGRFTISRDSAKNTLYLQMNTLRPEDTAVYYCAARDRYGSGNSLSPSAYDYWGQGTQVTVSS"
reported_metric = "OD (PE binding ELISA)"
value_unit = "OD450 nm"
observed = 0.049

[[record]]
binder = "FJ1427_P035MP04G09 (VHH) VHH: QVQLQESGGGLVQAGGSLRLSCAASGPTFSRVAVGWFRQVPGKEREFVAAVNRPATMTKYADSVKGRFTISRDNAKNTVDLQMNSMKPEDTAVYYCAADSVPYGRPYYFQTSAGEYDYWGQGTQVTVSS"
reported_metric = "OD (PE binding ELISA)"
value_unit = "OD450 nm"
observed = 0.05

[[record]]
binder = "FJ1427_P035MP04H09 (VHH) VHH: EVQLVESGGGWVQVGESLRLSCAPSGRTFVSGIMGWFRQAPGKEREFVARIILNNNSTRYTDSVKGRFTISRDSAKNTMYLQMNTLRPEDTAVYYCAARDRYGSGNSLSPSAYDYWGQGTQVTVSS"
reported_metric = "OD (PE binding ELISA)"
value_unit = "OD450 nm"
observed = 0.05

[[record]]
binder = "FJ1427_P035MP04F02 (VHH) VHH: QLQLVESGGGLVQAGGSLTLSCAASGRTFSRDVVGWFRQAPGKEREFVASISRSGDGTFYTDSVKGRFTISSRDNAKNTVLLQMNSLKVEDTAVYYCAAGDGWSTYDYWGQGTQVTVSS"
reported_metric = "OD (PE binding ELISA)"
value_unit = "OD450 nm"
observed = 0.049

[[record]]
binder = "35-MP07G01 (VHH) VHH: QVQLQESGGGLVQGGGSLRLSCAASGGIFSSYAMGWFRQAPGKEREFVAAISRSGRSTNYADSVKGRFTISRDNAKSTVYLQMNSLKPEETAVYYCAAGRYYNSAYDPSPGDFGSWGHGTQVTVSS"
reported_metric = "OD (PE binding ELISA)"
value_unit = "OD450 nm"
observed = 0.045


Data provenance: patent US20240409645A1
